The entries below are paired with their reported pIC50.
Target desc: purified integrin αvβ3 receptor (Homo sapiens, UniProt P05106+P06756)
Sequence (P06756 31-889 limits assumed): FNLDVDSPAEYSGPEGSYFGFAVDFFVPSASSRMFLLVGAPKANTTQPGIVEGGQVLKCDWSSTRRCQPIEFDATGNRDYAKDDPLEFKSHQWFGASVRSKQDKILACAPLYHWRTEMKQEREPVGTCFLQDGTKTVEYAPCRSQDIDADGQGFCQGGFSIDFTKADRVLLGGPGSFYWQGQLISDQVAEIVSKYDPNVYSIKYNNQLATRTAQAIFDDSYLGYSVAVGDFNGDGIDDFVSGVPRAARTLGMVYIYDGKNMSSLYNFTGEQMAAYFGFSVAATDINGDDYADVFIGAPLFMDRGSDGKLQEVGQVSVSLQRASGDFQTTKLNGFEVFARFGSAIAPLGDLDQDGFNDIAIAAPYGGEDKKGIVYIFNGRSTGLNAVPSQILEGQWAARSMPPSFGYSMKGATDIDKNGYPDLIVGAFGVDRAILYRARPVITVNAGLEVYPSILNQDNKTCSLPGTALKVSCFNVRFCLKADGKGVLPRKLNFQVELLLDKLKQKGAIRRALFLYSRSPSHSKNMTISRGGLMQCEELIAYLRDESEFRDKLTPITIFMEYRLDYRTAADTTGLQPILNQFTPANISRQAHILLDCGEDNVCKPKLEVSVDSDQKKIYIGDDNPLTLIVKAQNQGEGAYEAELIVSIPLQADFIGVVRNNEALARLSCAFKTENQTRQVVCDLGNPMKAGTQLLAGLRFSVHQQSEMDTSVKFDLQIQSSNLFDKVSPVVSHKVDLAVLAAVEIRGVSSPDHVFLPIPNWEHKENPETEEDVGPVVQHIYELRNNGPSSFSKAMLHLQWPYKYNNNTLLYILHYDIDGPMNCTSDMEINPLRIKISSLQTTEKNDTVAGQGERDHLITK
Sequence (P06756 891-1048 partner limits assumed): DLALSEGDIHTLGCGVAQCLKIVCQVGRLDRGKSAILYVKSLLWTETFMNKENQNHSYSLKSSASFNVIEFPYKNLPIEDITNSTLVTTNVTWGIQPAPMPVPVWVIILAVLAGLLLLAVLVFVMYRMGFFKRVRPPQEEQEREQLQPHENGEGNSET
Sequence (P05106 27-788): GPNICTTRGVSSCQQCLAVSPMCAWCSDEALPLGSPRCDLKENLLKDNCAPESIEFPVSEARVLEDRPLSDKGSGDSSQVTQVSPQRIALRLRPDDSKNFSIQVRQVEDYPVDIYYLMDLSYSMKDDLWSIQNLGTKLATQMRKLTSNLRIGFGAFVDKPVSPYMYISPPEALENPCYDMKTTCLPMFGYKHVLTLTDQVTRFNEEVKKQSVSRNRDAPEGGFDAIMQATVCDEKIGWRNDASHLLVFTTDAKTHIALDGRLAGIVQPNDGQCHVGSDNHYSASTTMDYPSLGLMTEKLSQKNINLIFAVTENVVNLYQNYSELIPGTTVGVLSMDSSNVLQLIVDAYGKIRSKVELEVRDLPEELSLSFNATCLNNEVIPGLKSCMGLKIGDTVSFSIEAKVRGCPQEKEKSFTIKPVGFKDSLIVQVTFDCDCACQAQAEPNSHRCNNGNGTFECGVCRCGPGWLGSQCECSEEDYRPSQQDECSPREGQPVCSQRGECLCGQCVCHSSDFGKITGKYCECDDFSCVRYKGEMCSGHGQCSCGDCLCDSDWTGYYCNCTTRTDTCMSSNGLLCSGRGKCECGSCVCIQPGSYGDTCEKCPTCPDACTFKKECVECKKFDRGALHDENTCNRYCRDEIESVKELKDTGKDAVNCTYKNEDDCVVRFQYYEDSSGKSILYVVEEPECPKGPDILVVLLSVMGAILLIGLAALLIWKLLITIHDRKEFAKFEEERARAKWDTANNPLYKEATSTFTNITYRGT
Test summary: Binding affinity towards purified integrin αvβ3 receptor
Expect pIC50 as a plain number equal to -log10 of the molar concentration.

>>> number("N=C(N)NCc1ccc(OCCOCCOCCOCCOCCOCCOCCn2cc(COc3c(I)cc(Oc4c(I)cc(CC(=O)O)cc4I)cc3I)nn2)cc1")
7.99

Here is another molecule to look at.
For the molecule N=C(N)NCc1ccc(OCCOCCOCCOCCOCCOCCOCCOCCN2CCN(CCCOc3c(I)cc(Oc4c(I)cc(CC(=O)O)cc4I)cc3I)CC2)cc1 , give its measured pIC50 value.
9.52
